# Reported conditions: 298.15 K; 101.33 kPa; Liquid; Vibrating tube method
Endpoint label: mass density (kg/m3)
Give the number; kg/m3 is assumed, so skip it.

| Molecule | Endpoint label | Unit abbreviation | Result |
| --- | --- | --- | --- |
| CCOC(C)=O [ethyl acetate] | mass density | kg/m3 | 894.4 |
| CC1CCCCC1 [methylcyclohexane] | mass density | kg/m3 | 764.96 |
| CCCCO [butan-1-ol] | mass density | kg/m3 | 805.8 |
| CC(=O)Oc1ccccc1 [phenyl ethanoate] | mass density | kg/m3 | 1073.3 |
| CN(C)C=O [dimethylformamide] | mass density | kg/m3 | 943.81 |

Input line: Which value of mass density has been reported for COC(=O)c1ccccc1C(=O)OC [dimethyl 1,2-benzenedicarboxylate] in the records?
Output line: 1186.9
